These entries and their values trace back to patent US9808466B2.

Catalogue of pIC50 readings, one per entry.
- Tgt: mTOR (Homo sapiens)
- Construct: purchased Invitrogen PV4754
- Assay comment: mTOR assay (LanthaScreen kinase activity assay)
- Format: biochemical
- Experimental conditions: read-out: mTOR actual IC50 (in parentheses)
Scale explanation: pIC50 corresponds to minus log10 of a concentration expressed in moles per litre.

Ask: Would you mind telling me what pIC50 value was observed for COc1ncc2cc1NS(=O)(=O)c1cccc(c1)C(=O)NCc1cccc(c1)-c1cnn3ccc-2nc13 ?
Reply: 8.40

Ask: Look up pIC50: COc1ncc2cc1NS(=O)(=O)c1cccc(c1)C(=O)N(C)CC1CCN(CC1)c1ccnc3ccc-2cc13
Reply: 8.40

Ask: Which measured pIC50 value corresponds to COc1ncc2cc1NS(=O)(=O)c1cccc(c1)C(=O)NCCN1CC=C(CC1)c1cnc3ccc-2cn13 ?
Reply: 7.44

Ask: State the recorded pIC50 for this entry: COc1ncc2cc1NS(=O)(=O)c1cccc(c1)C(=O)NCCn1cc(cn1)-c1cnn3ccc-2nc13
Reply: 7.40

Ask: Data request, read-out pIC50, for COc1ncc2cc1NS(=O)(=O)c1cccc(c1)C(=O)NCc1cccc(c1)-c1ccnc3ccc-2nc13
Reply: 7.80

Ask: What value of pIC50 has been recorded for this entry: COc1ncc2cc1NS(=O)(=O)c1cccc(c1)C(=O)NCCn1cc(cn1)-c1ccnc3ccc-2cc13
Reply: 7.68

====

Entries and their pIC50 values follow.
- Tgt: PIM-1 (Homo sapiens, UniProt P11309)
- Construct: histidine tag (C); made in house
- Sequence (P11309 whole entry): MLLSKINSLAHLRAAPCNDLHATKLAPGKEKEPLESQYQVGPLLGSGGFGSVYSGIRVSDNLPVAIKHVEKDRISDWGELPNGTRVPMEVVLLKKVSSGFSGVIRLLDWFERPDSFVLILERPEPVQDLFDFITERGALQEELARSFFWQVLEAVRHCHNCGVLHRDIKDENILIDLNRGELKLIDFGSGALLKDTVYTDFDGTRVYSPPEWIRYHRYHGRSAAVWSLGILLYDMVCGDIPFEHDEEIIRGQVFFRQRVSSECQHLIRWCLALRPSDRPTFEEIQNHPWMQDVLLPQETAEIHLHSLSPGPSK
- Assay comment: PIM-1 biochemical assay (ADP Hunter)
- Experimental conditions: read-out: PIM-1 activity (semi-quantitative IC50)
pIC50: −log10 of the molar value.

Use these answered entries as a reference point.
1. COc1ncc2cc1NS(=O)(=O)c1ccc(F)c(c1)C(=O)NCC1=CC=C(S1)c1ncnc3c1SC2=C3C [compound 90] = > 7.00
2. COc1ncc2cc1NS(=O)(=O)c1cccc(c1)C(=O)NCc1cc(F)cc(c1)-c1ncnc3c1SC2=C3C [compound 92] = < 6.00
3. COc1ncc2cc1NS(=O)(=O)c1cccc(c1)C(=O)NC[C@H]1CCN(C1)c1ncnc3c1SC2=C3C [compound 99] = > 7.00

Ask: Give pIC50 (PIM-1 (Homo sapiens, UniProt P11309)) of the following compound: COc1ncc2cc1NS(=O)(=O)c1cccc(c1)C(=O)NCC1=C(C)C=C(S1)c1ncnc3c1SC2=C3 [compound 88]
Reply: > 7.00

====

- Assay comment: Pharmacokinetic in BALB-c female mice, i.v. and oral
- Assay type: in vivo
- Experimental conditions: mouse, plasma, iv, I.V, dose 1.00 mg/Kg, read-out: Cl (plasmatic clearance) (converted)
Experimental endpoint: clearance (mL/min/kg)
Report the value in mL/min/kg with no unit label.

Ask: Can you look up the measured clearance of COc1ncc2cc1NS(=O)(=O)c1cccc(c1)C(=O)N1CCc3ccc(cc3C1)-c1ccnc3ccc-2cc13 for me?
Reply: 4.17

====

IC50 reference
- Tgt: PI3K (p110α/p85α) (Homo sapiens)
- Construct: purchased Carna Biosciences 07CBS-0402A
- Sequence (P42336 whole entry): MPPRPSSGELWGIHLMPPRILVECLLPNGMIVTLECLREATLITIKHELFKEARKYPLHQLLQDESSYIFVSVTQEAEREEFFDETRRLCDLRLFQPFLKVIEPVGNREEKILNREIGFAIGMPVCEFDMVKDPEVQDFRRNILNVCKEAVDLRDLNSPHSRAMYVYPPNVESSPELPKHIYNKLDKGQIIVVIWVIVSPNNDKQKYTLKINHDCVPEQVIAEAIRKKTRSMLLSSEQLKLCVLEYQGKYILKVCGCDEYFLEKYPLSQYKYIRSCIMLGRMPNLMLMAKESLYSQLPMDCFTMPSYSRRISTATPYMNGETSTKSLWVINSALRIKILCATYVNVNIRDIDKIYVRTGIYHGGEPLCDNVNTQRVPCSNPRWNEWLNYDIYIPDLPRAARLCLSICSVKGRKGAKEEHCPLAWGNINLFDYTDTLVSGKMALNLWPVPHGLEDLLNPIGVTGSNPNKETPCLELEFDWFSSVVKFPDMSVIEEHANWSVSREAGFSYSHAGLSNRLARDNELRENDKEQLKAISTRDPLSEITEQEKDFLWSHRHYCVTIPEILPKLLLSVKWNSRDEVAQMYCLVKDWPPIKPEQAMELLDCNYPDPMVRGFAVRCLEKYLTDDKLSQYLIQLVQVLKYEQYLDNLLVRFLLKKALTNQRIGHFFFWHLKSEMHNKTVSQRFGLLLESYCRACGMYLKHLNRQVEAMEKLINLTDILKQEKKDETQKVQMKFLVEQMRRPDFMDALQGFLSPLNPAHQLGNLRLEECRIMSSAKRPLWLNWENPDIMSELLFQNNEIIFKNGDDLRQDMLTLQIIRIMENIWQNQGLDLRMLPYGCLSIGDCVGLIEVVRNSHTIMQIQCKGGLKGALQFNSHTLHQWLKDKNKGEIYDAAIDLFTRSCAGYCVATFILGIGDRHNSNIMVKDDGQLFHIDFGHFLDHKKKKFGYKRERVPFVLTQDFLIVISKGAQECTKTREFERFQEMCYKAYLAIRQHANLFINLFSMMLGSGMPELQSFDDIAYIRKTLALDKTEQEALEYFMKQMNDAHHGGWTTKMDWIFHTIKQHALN
- Sequence (P27986 whole entry partner): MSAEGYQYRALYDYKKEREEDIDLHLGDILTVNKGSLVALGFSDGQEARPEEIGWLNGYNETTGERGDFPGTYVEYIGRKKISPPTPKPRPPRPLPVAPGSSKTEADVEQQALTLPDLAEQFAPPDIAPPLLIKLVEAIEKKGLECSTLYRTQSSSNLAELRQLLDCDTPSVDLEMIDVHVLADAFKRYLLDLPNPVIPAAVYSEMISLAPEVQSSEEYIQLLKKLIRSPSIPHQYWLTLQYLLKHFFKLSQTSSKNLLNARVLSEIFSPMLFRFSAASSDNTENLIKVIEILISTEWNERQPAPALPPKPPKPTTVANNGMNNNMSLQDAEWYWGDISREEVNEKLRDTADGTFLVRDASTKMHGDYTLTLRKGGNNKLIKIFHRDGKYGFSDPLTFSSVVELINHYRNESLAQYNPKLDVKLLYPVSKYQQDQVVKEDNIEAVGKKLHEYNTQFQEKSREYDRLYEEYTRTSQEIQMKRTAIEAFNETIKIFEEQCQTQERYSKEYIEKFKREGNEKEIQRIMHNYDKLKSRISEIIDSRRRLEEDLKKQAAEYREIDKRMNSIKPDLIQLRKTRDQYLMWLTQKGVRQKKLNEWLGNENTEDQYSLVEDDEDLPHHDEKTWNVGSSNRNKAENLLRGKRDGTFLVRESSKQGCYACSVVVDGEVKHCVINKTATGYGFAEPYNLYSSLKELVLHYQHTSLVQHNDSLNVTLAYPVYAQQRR
- Assay comment: PI3K activity assay (ADP Hunter Plus)
- Assay type: biochemical
- Experimental conditions: read-out: PI3K alpha activity, IC50 (semi-quantitative class)

1. COc1ncc2cc1NS(=O)(=O)c1ccc(F)c(c1)C(=O)NCc1cncc(c1)-c1ncnc3c1SC2=C3 = < 100 nM
2. O=C1NCc2cncc(c2)-c2ncnc3c2SC(=C3)c2cnc(Cl)c(c2)NS(=O)(=O)c2cccc1c2 = < 100 nM

Ask: Write down the reported IC50 of COc1ncc2cc1NS(=O)(=O)c1ccc(F)c(c1)C(=O)NCC1=CC=C(S1)c1ncnc3c1SC2=C3 , test system: PI3K (p110α/p85α) (Homo sapiens).
Reply: < 100 nM

Ask: Lab note: need IC50 with PI3K (p110α/p85α) (Homo sapiens) for entry COc1ncc2cc1NS(=O)(=O)c1cccc(c1)C(=O)NCCCCNc1ccnc3ccc-2cc13 , please look it up.
Reply: > 1000 nM

Ask: # value lookup — system PI3K (p110α/p85α) (Homo sapiens), readout IC50, item COc1ncc2cc1NS(=O)(=O)c1cccc(c1)C(=O)NCC1CCN(CC1)c1ccnc3ccc-2cc13
Reply: < 100 nM

Ask: Observed IC50 on PI3K (p110α/p85α) (Homo sapiens) for COc1ncc2cc1N(C)S(=O)(=O)c1cccc(c1)C(=O)NCc1cncc(c1)-c1ncnc3c1SC2=C3 , please.
Reply: > 1000 nM

Ask: Reported IC50 for PI3K (p110α/p85α) (Homo sapiens), given COc1ncc2cc1NS(=O)(=O)c1cccc(c1)C(=O)NCc1cncc(c1)-c1ncnc3sc-2cc13 ?
Reply: < 100 nM

Ask: Provide the documented IC50 with PI3K (p110α/p85α) (Homo sapiens) as the system for COc1ncc2cc1NS(=O)(=O)c1cccc(c1)C(=O)NCc1cccc(c1)-c1ccnc3ccc-2nc13
Reply: < 100 nM

Ask: Item: COc1ncc2cc1NS(=O)(=O)c1cccc(c1)C(=O)N(C)CC1CCN(CC1)c1ccnc3ccc-2cc13 Test system: PI3K (p110α/p85α) (Homo sapiens) Read-out: IC50 Value: ?
Reply: < 100 nM

Ask: Param readout = IC50; param system = PI3K (p110α/p85α) (Homo sapiens); param query = COc1ncc2cc1NS(=O)(=O)c1cccc(c1)C(=O)NCCn1cc(cn1)-c1ccnc3ccc-2cc13 ; response: value
Reply: < 100 nM

====

pIC50 values for the molecules below.
- Tgt: mTOR (Homo sapiens, UniProt P42345)
- Construct: purchased Invitrogen PV4754
- Sequence (P42345 1360-2549 limits assumed): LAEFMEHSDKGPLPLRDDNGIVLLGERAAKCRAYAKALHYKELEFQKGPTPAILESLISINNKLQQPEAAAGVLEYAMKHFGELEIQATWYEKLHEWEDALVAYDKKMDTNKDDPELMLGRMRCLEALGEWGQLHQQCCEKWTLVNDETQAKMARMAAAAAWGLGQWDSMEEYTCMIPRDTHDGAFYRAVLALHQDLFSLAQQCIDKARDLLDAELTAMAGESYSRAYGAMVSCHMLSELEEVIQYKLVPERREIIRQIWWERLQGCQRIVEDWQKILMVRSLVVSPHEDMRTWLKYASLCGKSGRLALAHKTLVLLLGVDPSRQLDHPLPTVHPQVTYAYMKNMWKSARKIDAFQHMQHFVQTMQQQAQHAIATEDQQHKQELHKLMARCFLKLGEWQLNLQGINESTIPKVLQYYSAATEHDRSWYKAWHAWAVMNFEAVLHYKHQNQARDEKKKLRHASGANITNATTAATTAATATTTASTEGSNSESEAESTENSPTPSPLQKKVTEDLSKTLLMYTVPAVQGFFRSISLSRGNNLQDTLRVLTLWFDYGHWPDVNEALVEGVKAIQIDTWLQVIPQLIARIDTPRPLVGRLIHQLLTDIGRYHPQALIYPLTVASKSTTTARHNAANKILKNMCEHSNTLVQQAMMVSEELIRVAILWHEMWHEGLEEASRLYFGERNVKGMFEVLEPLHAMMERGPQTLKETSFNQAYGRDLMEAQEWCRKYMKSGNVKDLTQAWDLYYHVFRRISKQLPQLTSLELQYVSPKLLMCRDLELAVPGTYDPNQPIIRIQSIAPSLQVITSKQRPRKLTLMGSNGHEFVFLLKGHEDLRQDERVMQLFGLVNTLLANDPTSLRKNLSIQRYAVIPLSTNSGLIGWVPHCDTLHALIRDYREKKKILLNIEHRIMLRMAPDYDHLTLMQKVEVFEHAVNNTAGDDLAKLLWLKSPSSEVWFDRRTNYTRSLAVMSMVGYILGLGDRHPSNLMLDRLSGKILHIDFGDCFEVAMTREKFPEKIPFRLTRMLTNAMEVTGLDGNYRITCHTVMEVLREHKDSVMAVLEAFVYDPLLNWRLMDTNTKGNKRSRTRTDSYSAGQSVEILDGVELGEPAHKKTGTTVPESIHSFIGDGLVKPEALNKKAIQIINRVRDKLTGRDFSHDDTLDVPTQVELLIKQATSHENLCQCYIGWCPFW
- Assay comment: mTOR assay (LanthaScreen kinase activity assay)
- Type: biochemical
- Experimental conditions: read-out: mTOR actual IC50 (in parentheses)
Here pIC50 is given on a logarithmic scale as minus log10 of the concentration in mol/L.

1. COc1ncc2cc1NS(=O)(=O)c1cccc(c1)C(=O)NCc1cncc(c1)-c1cnc3ccc-2cn13 [compound 30] = 7.31
2. COc1ncc2cc1NS(=O)(=O)c1cc(c(F)cc1F)C(=O)NCc1cncc(c1)-c1ccnc3ccc-2nc13 [compound 71] = 7.60

Ask: Identify the measured pIC50 of COc1ncc2cc1NS(=O)(=O)c1cc(c(F)cc1F)C(=O)NCc1cncc(c1)-c1ccnc3ccc-2cc13 [compound 10] for mTOR (Homo sapiens, UniProt P42345).
Reply: 7.66

Ask: Field: pIC50 (mTOR (Homo sapiens, UniProt P42345)). Entry: COc1ncc2cc1NS(=O)(=O)c1cccc(c1)C(=O)NCCn1cc(cn1)-c1cnc3ccc-2cn13 [compound 34]
Reply: 7.18

Ask: Query for mTOR (Homo sapiens, UniProt P42345): what pIC50 does the record show for COc1ncc2cc1NS(=O)(=O)c1cccc(c1)C(=O)NCCN1CC=C(CC1)c1cnc3ccc-2nn13 [compound 23] ?
Reply: 7.66

Ask: What measured pIC50 is associated with COc1ncc2cc1NS(=O)(=O)c1cccc(c1)C(=O)NCCn1cc(cn1)-c1cnc3ccc-2nn13 [compound 18] on mTOR (Homo sapiens, UniProt P42345)?
Reply: 7.17

Ask: Give pIC50 (mTOR (Homo sapiens, UniProt P42345)) of the following molecule: COc1ncc2cc1NS(=O)(=O)c1cccc(c1)C(=O)NCc1cncc(c1)-c1ccnc3ccc-2nc13 [compound 31]
Reply: 7.64

Ask: Request body: readout pIC50, system mTOR (Homo sapiens, UniProt P42345), query COc1ncc2cc1NS(=O)(=O)c1cccc(c1)C(=O)NCC1=CC=C(S1)c1ncnc3c1SC2=C3C [compound 68] . Return the value.
Reply: 7.05

Ask: Notebook entry, mTOR (Homo sapiens, UniProt P42345) assay: pIC50 of COc1ncc2cc1NS(=O)(=O)c1cccc(c1)C(=O)Nc1cncc(c1)-c1ncnc3c1SC2=C3 [compound 47] = ?
Reply: 8.07

====

- Tgt: PIM-1 (Homo sapiens, UniProt P11309)
- Construct: histidine tag (C); made in house
- Assay comment: PIM-1 biochemical assay (ADP Hunter)
- Experimental conditions: read-out: PIM-1 activity (semi-quantitative IC50)
Experimental endpoint: IC50

Ask: Dear colleague, I am looking for the recorded IC50 of the following molecule: COc1ncc2cc1NS(=O)(=O)c1cccc(c1)C(=O)NC[C@H]1CCN(C1)c1ncnc3c1SC2=C3
Reply: 100 to 1000 nM

Ask: Quick check: IC50 of COc1ncc2cc1NS(=O)(=O)c1cccc(c1)C(=O)NCc1ccncc1-c1ncnc3c1SC2=C3 ?
Reply: > 1000 nM

Ask: Quick check: IC50 of COCCOc1ccc2cc1C(=O)NCC1=CC=C(S1)c1ncnc3c1SC(=C3)c1cnc(OC)c(c1)NS2(=O)=O ?
Reply: > 1000 nM

Ask: I'd like to know its IC50. The molecule in question is COc1ncc2cc1NS(=O)(=O)c1ccc(Cl)c(c1)C(=O)NCC1=CC=C(S1)c1ncnc3c1SC2=C3
Reply: < 100 nM

Ask: Fill blank: measured IC50 of the molecule COc1ccc2cc1C(=O)NCC1=CC=C(S1)c1ncnc3c1SC(=C3)c1cnc(OC)c(c1)NS2(=O)=O is ____.
Reply: < 100 nM

Ask: For the molecule COc1ncc2cc1NS(=O)(=O)c1cccc(c1)C(=O)NC[C@@H]1CCN(C1)c1ncnc3c1SC2=C3 , what IC50 is on record?
Reply: 100 to 1000 nM

Ask: Record request: IC50 value, item COc1ncc2cc1NS(=O)(=O)c1cccc(c1)C(=O)NC[C@@H]1CCN(C1)c1ncnc3c1SC2=C3C
Reply: < 100 nM
